Target: P2X7 receptor (Rattus norvegicus)
Construct: rP2X7 (IC50; nM); other: rP2X7; HEK-293 cells stably transfected with P2X7 receptor, Bz-ATP at EC80, Fluo-8 NW; potency
Sequence (Q64663 1-595): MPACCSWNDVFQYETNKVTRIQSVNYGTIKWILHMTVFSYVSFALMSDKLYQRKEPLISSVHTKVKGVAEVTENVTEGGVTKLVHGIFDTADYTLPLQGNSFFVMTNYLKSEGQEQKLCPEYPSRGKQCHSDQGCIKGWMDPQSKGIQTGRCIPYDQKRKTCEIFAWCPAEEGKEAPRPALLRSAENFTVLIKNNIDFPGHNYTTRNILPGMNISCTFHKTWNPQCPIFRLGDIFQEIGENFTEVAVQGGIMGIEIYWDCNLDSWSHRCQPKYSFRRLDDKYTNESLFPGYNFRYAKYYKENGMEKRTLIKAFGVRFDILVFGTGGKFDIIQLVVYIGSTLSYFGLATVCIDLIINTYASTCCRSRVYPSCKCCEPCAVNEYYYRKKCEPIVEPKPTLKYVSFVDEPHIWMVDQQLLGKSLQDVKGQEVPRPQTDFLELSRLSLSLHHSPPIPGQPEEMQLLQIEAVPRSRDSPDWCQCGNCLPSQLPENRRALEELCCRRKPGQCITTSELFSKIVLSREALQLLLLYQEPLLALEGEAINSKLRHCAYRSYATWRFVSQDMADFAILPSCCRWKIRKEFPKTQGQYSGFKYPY
Experiment: Screen Quest Fluo-8 No Wash Calcium Assay (Bz-ATP evoked Ca2+ influx, FLIPR)
Format: cell-based
Settings: rP2X7; HEK-293 cells stably transfected with P2X7 receptor, Bz-ATP at EC80, Fluo-8 NW; potency ranges A-D
test_readout: IC50

{"compound": "O=c1onc(Cc2c(F)cccc2Cl)n1Cc1cccc(Cl)c1Cl", "test_readout": "IC50", "experimental_result": "200 to 1000 nM"}
{"compound": "O=c1onc(Cc2c(F)cccc2Cl)n1CCCN1CCC(F)(F)CC1", "test_readout": "IC50", "experimental_result": "> 10000 nM"}
{"compound": "O=c1onc(Cc2ccc(F)cc2F)n1CC1CCCCC1", "test_readout": "IC50", "experimental_result": "< 200 nM"}
{"compound": "O=c1onc(Cc2c(F)cccc2Cl)n1Cc1cncs1", "test_readout": "IC50", "experimental_result": "> 10000 nM"}
{"compound": "O=c1onc(Cc2cccnc2)n1CC1CCCCC1", "test_readout": "IC50", "experimental_result": "1000 to 10000 nM"}
{"compound": "COc1cccc(Cc2noc(=O)n2CC2CCCCC2)c1", "test_readout": "IC50", "experimental_result": "> 10000 nM"}
{"compound": "Cc1ncsc1Cn1c(CC2CCC(F)(F)CC2)noc1=O", "test_readout": "IC50", "experimental_result": "200 to 1000 nM"}
{"compound": "O=c1onc(Cc2c(F)cccc2Cl)n1CC1CCCCO1 (stereo not shown)", "test_readout": "IC50", "experimental_result": "200 to 1000 nM"}
{"compound": "COc1cccc(Cc2noc(=O)n2Cc2c(F)cccc2Cl)c1", "test_readout": "IC50", "experimental_result": "> 10000 nM"}

State its IC50 on P2X7 receptor (Rattus norvegicus): O=c1onc(CC2CCC(F)(F)CC2)n1Cc1ccc(C(F)(F)F)nc1 > 10000 nM
